- System: RXF 393
- Test protocol: NCI tumour cell line growth inhibition, 48 h
Activity calls are given as the source filed them. Cut-off read from the data, not from the text of the source: active = GI50 up to about 1.1 µM and inactive = higher.
Measurement name: GI50

Here are 2 compounds together with their reported answers.
Compound: Nc1ncnc2c1ncn2CCCNO
Reported value: > 100 µM (inactive)

Compound: CN(C)CCNC(=O)Cn1ccc(=O)c2cc([N+](=O)[O-])ccc21
Reported value: > 100 µM (inactive)

Form: compound = "N#Cc1nc(C(F)(F)F)oc1N" ; GI50 = > 100 µM (inactive)

Form: compound = "Cc1ccc(S(=O)(=O)NC2=NS(=O)(=O)c3cc(C)c(Cl)cc3S2)cc1" ; GI50 = 76.7 µM (inactive)

Form: compound = "O=[N+]([O-])c1ccc(/C=N\N=c2/ccc([N+](=O)[O-])c[nH]2)cc1" ; GI50 = > 100 µM (inactive)

Provenance of the data: ChEMBL document CHEMBL1201862
